target: serotonin transporter (Rattus norvegicus)
Sequence (P31652 whole entry): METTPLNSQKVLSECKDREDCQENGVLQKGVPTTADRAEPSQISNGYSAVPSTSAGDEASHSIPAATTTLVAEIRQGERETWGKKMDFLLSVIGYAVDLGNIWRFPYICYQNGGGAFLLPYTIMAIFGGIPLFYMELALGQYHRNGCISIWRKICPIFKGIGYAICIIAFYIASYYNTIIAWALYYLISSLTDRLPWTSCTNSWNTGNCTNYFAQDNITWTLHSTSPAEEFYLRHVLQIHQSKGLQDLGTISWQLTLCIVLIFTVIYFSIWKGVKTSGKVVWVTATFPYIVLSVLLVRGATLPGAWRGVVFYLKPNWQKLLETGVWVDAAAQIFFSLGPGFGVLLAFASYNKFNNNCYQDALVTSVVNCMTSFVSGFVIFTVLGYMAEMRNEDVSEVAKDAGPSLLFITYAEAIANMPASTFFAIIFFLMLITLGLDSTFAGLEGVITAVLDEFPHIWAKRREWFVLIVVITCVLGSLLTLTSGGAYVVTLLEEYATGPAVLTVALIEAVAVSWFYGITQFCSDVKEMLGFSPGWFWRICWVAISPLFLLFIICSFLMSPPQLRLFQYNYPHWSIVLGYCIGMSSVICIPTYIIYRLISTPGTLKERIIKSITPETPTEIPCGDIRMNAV
pKi: −log10 of the molar value.
Given measured pKi, output criterion met if it is greater than or equal to 9 and criterion not met if not.

smi: N#Cc1ccc2nc(N3CCN(C[C@H]4COc5ccc6ncccc6c5O4)CC3)ccc2c1
tgt: serotonin transporter (Rattus norvegicus)
label.class: criterion not met

smi: Cc1ccc2c3c(ccc2n1)OC[C@H](CN1CCN(c2ccc4ccccc4n2)C[C@@H]1C)O3
tgt: serotonin transporter (Rattus norvegicus)
label.class: criterion not met

smi: Cc1ccc2c3c(ccc2n1)OC[C@H](CN1CCN(c2ccc4cc(Br)ccc4n2)CC1)O3
tgt: serotonin transporter (Rattus norvegicus)
label.class: criterion not met

smi: Cc1ccc2c3c(ccc2n1)OC[C@H](CN1CCN(c2ccc4cc([N+](=O)[O-])ccc4n2)CC1)O3
tgt: serotonin transporter (Rattus norvegicus)
label.class: criterion met

smi: Cc1ccc2c3c(ccc2n1)OC[C@H](CN1CCN(c2ccc4ccccc4c2)CC1)O3
tgt: serotonin transporter (Rattus norvegicus)
label.class: criterion not met

smi: CCc1ccc2c3c(ccc2n1)OC[C@H](CN1CCN(c2ccc4cc(C#N)ccc4n2)CC1)O3
tgt: serotonin transporter (Rattus norvegicus)
label.class: criterion not met
